- run.description: Pharmacokinetics (PK) in SD rats
- Assay type: in vivo
- condition.set: SD, plasma, po; rat, intragastric administration, 2 mg/kg
recorded.metric: AUC(0-inf) (ng·h/mL)
Answers are plain numbers, in ng·h/mL.

Worked examples, 4 molecules total:
| molecule | AUC(0-inf) [ng·h/mL] |
| --- | --- |
| COc1ccc(CNc2nc(N3CC4CC4C3)ncc2C(=O)NCc2ccccn2)cc1Cl (centres unmarked) [Compound 2] | 69 |
| COc1ccc(CN=c2[nH]c(N3CCC[C@H]3CO)ncc2C(=O)NCc2ncccn2)cc1Cl [Avanafil, reference compound] | 50 |
| COc1ccc(CNc2nc(N3CCC4(CC4)C3)ncc2C(=O)NCc2ccccn2)cc1Cl [Compound 40] | 57 |
| COc1ccc(CNc2nc(N3CCC4(CC4)C3)ncc2C(=O)NCc2ncccn2)cc1Cl [Compound 41] | 67 |

Continue with the next molecule.
Report AUC(0-inf) for COc1ccc(CNc2nc(N3CC4CC4C3CO)ncc2C(=O)NCc2ccccc2)cc1Cl (centres unmarked) [Compound 32] please.
24
